Listed compounds paired with reported Tumor growth inhibition ratio IR
Tested on: HCT116/BCRP cells
measurement-description: Effect of overcoming anticancer agent resistance in vivo, HCT116/BCRP tumour in nude mice
Parameters: species or system human
details: compound 25 mg/kg/day + CPT-11 10 mg/kg/day i.v. once a day for seven days; day 21; vs control group
Where a name gives a salt, the structure may show the parent alone.
Reply with just the number (in %).

-- ask Please supply the value of reported Tumor growth inhibition ratio IR for the item COc1ccc(/C(C#N)=C/c2ccc(N3CCN(CCO)CC3)s2)cc1OC [Compound 14, hydrochloride]
-- reply 45.1

-- ask Please indicate Tumor growth inhibition ratio IR recorded for COc1ccc(/C(C#N)=C/c2ccc(N3CCN(C)CC3)s2)cc1OC [Compound 13, hydrochloride]
-- reply 35.0

-- ask // fetch Tumor growth inhibition ratio IR given entry COc1ccc(/C(C#N)=C/c2ccncc2)cc1OC [Compound 31, hydrochloride]
-- reply 51.1

-- ask Please look at this compound and report its Tumor growth inhibition ratio IR: COc1ccc(/C(C#N)=C/c2ccc(-c3cccc(N)c3)o2)cc1OC [Compound 23, hydrochloride]
-- reply 48.8

More entries:
-- ask Give recorded Tumor growth inhibition ratio IR. COc1ccc(/C=C(\C#N)c2cccnc2)cc1OC [Compound 46, hydrochloride]
-- reply 47.7

----------
System: HCT116/BCRP cells
measurement-description: Effect of overcoming anticancer agent resistance in vivo, HCT116/BCRP tumour in nude mice
Set-up: species or system human
details: compound 12.5 mg/kg/day + CPT-11 10 mg/kg/day i.v. once a day for seven days; day 21; BALB/c nude mice
Where a name gives a salt, the structure may show the parent alone.
measured-attribute: Tumor weight Mean ± S.D. (g)
Write the value in g as a bare number.

Example compounds with recorded Tumor weight Mean ± S.D.:
-- ask Respond only with Tumor weight Mean ± S.D. recorded for COc1ccc(/C(C#N)=C/c2ccc(N3CCN(C)CC3)s2)cc1OC [Compound 13, hydrochloride]
-- reply 0.87

-- ask State its Tumor weight Mean ± S.D. for this compound: COc1ccc(/C=C(\C#N)c2cccnc2)cc1OC [Compound 46, hydrochloride]
-- reply 0.79

-- ask Give the measured Tumor weight Mean ± S.D. for COc1ccc(/C(C#N)=C/c2ccncc2)cc1OC [Compound 31, hydrochloride]
-- reply 0.74

-- ask Quickly give me recorded Tumor weight Mean ± S.D. for COc1ccc(/C(C#N)=C/c2ccc(-c3cccc(N)c3)o2)cc1OC [Compound 23, hydrochloride]
-- reply 1.21

-- ask State, in one line, measured Tumor weight Mean ± S.D. of COc1ccc(/C(C#N)=C/c2ccc(N3CCN(CCO)CC3)s2)cc1OC [Compound 14, hydrochloride]
-- reply 0.79

// below: Tumor weight Mean ± S.D. requested for another compound
-- ask Retrieve Tumor weight Mean ± S.D. measured for `COc1ccc(/C(C#N)=C/c2ccncc2)cc1OC.CS(=O)(=O)O` and print it.
-- reply 0.52

----------
System: A549/SN-38-4 cells
measurement-description: Effect of overcoming SN-38 resistance of BCRP-expressing A549/SN-38-4 cells
Assay type: cell-based, human
details: concentration for 50% reduction of relative SN-38 resistance value (IC50 A549/SN-38-4 / IC50 A549); 48 hours culture with SN-38; hydrochloride
Protocol: The human lung cancer A549 cells or the A549/SN-38-4 cells were suspended in a Ham's F-12 medium containing 10% FBS, 100 U/mL of penicillin, and 100 μg/mL of streptomycin (10% FBS/Ham's F-12), and the resultant suspension was inoculated into a 96-well microplate (2×10^3 cells/50 μL/well), followed by culturing at 5% CO2 and 37° C. overnight. […]
Where a name gives a salt, the structure may show the parent alone.
measured-attribute: Effect of overcoming resistance EC50 (µg/mL)

Before answering, review these 2 worked examples.
-- ask Give recorded Effect of overcoming resistance EC50. COc1ccc(/C(C#N)=C/c2ccncc2)cc1OC [Compound 31, hydrochloride]
-- reply 0.037

-- ask Fill in Effect of overcoming resistance EC50 for record COc1ccc(/C(C#N)=C/c2ccc(N3CCN(C)CC3)o2)cc1OC [Compound 29, hydrochloride]
-- reply 0.42

[A] COc1ccc(/C(C#N)=C/c2ccc(N3CCN(CCO)CC3)o2)cc1OC [Compound 50, hydrochloride]
[B] COc1ccc(/C(C#N)=C/c2ccc(N3CCCCC3)s2)cc1OC [Compound 11, hydrochloride]
-- ask Identify the item whose Effect of overcoming resistance EC50 is the smaller number: A or B Respond using the label that marks the chosen record.
-- reply B
(B: 0.049 µg/mL, A: 0.11 µg/mL)

[1] COc1ccc(/C=C(\C#N)c2ccc(OC)c(OC)c2)cn1 [Compound 37, hydrochloride]
[2] COc1ccc(/C(C#N)=C/c2ccc(N(C)CCN(C)C)s2)cc1OC [Compound 15, hydrochloride]
-- ask Effect of overcoming resistance EC50 comparison. Which is larger, 1 or 2 ? Please respond with the label that marks your chosen entry.
-- reply 2
(2: 0.2 µg/mL, 1: 0.12 µg/mL)

----------
System: A549/SN-38-4 cells
measurement-description: Effect of overcoming SN-38 resistance of BCRP-expressing A549/SN-38-4 cells
Assay type: cell-based, human
details: concentration for 50% reduction of relative SN-38 resistance value (IC50 A549/SN-38-4 / IC50 A549); 48 hours culture with SN-38; hydrochloride
Procedure: The human lung cancer A549 cells or the A549/SN-38-4 cells were suspended in a Ham's F-12 medium containing 10% FBS, 100 U/mL of penicillin, and 100 μg/mL of streptomycin (10% FBS/Ham's F-12), and the resultant suspension was inoculated into a 96-well microplate (2×10^3 cells/50 μL/well), followed by culturing at 5% CO2 and 37° C. overnight. […]
Counter-ions that a name gives are not always drawn.
measured-attribute: Effect of overcoming resistance EC50 (µg/mL)

-- ask Quote Effect of overcoming resistance EC50 with test system A549/SN-38-4 cells for COc1ccc(/C(C#N)=C/c2ccc(N3CCN(C)CC3)s2)cc1OC [Compound 13, hydrochloride]
-- reply 0.033

[I] COc1ccc(/C=C(\C#N)c2ccccn2)cc1OC [Compound 47, hydrochloride]
[II] COc1ccc(/C(C#N)=C/c2ccc(-c3cccc(N)c3)o2)cc1OC [Compound 23, hydrochloride]
[III] COc1ccc(/C(C#N)=C/c2cccnc2)cc1OC [Compound 36, hydrochloride]
-- ask Please rank these compounds by Effect of overcoming resistance EC50 in descending order. // ordering of labels required in reply
-- reply III, II, I
